tested on: ACHN renal; assay: NCI tumour cell line growth inhibition, 48 h

- molecule: "C[N+]1(C)C/C(=C\\c2ccc(O)cc2)C(=O)/C(=C/c2ccc(O)cc2)C1"
  TGI: "> 100 µM"
- molecule: "COC(=O)C1=CO[C@@H](OC2OC(CO)C(O)C(O)C2O)[C@@H]2[C@H](C)[C@@H](O)[C@@H](O)[C@]12O (stereo not given in full)"
  TGI: "> 100 µM"
- molecule: "COc1ccc2cc(/C=N\\NC(=O)Nc3ccc([N+](=O)[O-])cc3)ccc2c1"
  TGI: "19.8 µM"
- molecule: "NC(=S)N/N=C/c1ccc(OC(=O)COc2ccccc2)cn1"
  TGI: "> 100 µM"
- molecule: "CC(=O)c1sc2n(C)c(=O)c3ccccc3[n+]2c1C"
  TGI: "> 100 µM"
- molecule: "CCOC(=O)C(O)Cc1cnc2ccccc2n1 (stereo not given)"
  TGI: "> 100 µM"
- molecule: "CC(=O)OC1CC2C(C)(C)OC(=O)CC(OC(C)=O)[C@]2(C)C2CCC3(C)C(=CCC3c3ccoc3)[C@]12C (stereo not given in full)"
  TGI: "> 100 µM"
- molecule: "COC(=O)/C=C1/OC(c2ccc(C)cc2C)=CC1=O"
  TGI: "29.3 µM"
- molecule: "COc1ccc(C2CC(c3cccc(OC)c3)=NN2C(=O)c2cc(OC)c(OC)c(OC)c2)cc1 (stereo not given)"
  TGI: "> 100 µM"
- molecule: "COC(=O)C1=C(C(=O)OC)C(OO)(c2ccccc2)OC1=O (stereo not given)"
  TGI: "> 100 µM"

Ref: PubChem BioAssay (NCI)
